Tested on: PPARg:RXRa 270nM:90nM, anti-RXR (NR concentration 270 nM, RXRa partner concentration 90 nM)
assay_explanation: PBM binding z-score (relative to random genomic background probes); higher = stronger binding; sequences stand for … in GC…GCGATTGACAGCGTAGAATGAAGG
Label rule met when PBM binding z-score >= 0.9; otherwise rule not met.

Examples with answers:
INSERT INTO assay_data (primary_sequence, label_class) VALUES
  ('CGTCAAAGTTCAAGGTAACGCAACAGAAAGCAGC', 'rule met'),
  ('GCTAGCAGGCCATTGGGGTCACTCAATGACGGGC', 'rule met'),
  ('CGTCGAAGGTCAAGGTCAGTGAAAGAGACTCGAA', 'rule met'),
  ('CCTAGCAGGCCAAACTGGGTCACTCAAGGCTTGA', 'rule met'),
  ('TCGAGTAGGTTAGTCGGGGCATTCAGCCAACATA', 'rule not met');

Check this sequence for PBM binding z-score at or above 0.9: "AGAACCAGGGCAATGAGTTGATAGCACGGGTGGC"
rule not met

----------
Tested on: RARg:RXRa (NR concentration 270 nM, RXRa partner concentration 90 nM)
assay_explanation: PBM binding z-score (relative to random genomic background probes); higher = stronger binding; sequences stand for … in GC…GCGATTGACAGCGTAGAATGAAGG
reported_metric: PBM binding z-score
Reply briefly: the number, and no unit.

Worked cases, PBM binding z-score given:
INSERT INTO measurements (primary_sequence, quantitative_readout) VALUES
  ('CGAACTAGGTCAAGGACACTGAATCTCCGCACGC', 3.94),
  ('CCTAGCAGGCCAATCTGGGTCTCTCAAGGCTTGA', -0.494);

Now examine the next entry.
Could you please provide reported PBM binding z-score for "CCTACTGAGCCACGAAAGGTCATTGATTCAGTGA" ? Thanks!
4.56

----------
# key: entry, value: PBM binding z-score
Tested on: VDR homodimer (NR concentration 270 nM)
assay_explanation: PBM binding z-score (relative to random genomic background probes); higher = stronger binding; sequences stand for … in GC…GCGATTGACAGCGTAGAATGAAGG
Reply briefly: the number, and no unit.

Worked cases, PBM binding z-score given:
INSERT INTO measurements (primary_sequence, quantitative_readout) VALUES
  ('ACTAGCAGGCCAAGTTTGGGTCACTCGAACAAAG', 0.0508),
  ('CCTTCTGGGCCAAAAAGGTCATTGATGCCGATAA', 2.86);

Could you please provide reported PBM binding z-score for "TAGGCTAGGTCAGATCGGGCCAGTATACGCTATA" ? Thanks!
-0.515

Could you please provide reported PBM binding z-score for "CCTACTGGGCCAAAAAGGTTATTGATGCCGATAA" ? Thanks!
0.00157

Could you please provide reported PBM binding z-score for "CATACAGGGTCAGCTAGGTCAGAGTAGGGACGGC" ? Thanks!
2.85

----------
Tested on: RARa homodimer (NR concentration 270 nM)
assay_explanation: PBM binding z-score (relative to random genomic background probes); higher = stronger binding; sequences stand for … in GC…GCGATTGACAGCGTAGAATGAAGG
# key: entry, value: PBM binding z-score
Reply briefly: the number, and no unit.

INSERT INTO assay_data (primary_sequence, quantitative_readout) VALUES
  ('TCTATTAGTTGATTAGGGCGACCGAAACAGCGGA', 1.27),
  ('TAGCCTAGGTCATTCAGGGTCCAGTATAGAAAGC', -0.0201),
  ('GCTGCTATGTCAACTGATGGTCAGCTAAAGCTCG', -1.19),
  ('AGAATGAGGTTAAGATCAGGGATACAGAATACAT', 0.49),
  ('GCTATAAGTTGAAAGGGCAACCGAATGATTCTCG', 0.129),
  ('CAAACTAGGTCACCGGAAGGTCACAGTCCGCATG', 3.12),
  ('TCGAGTAGGTTAGGTGCATTCAGAATGGCGTCGA', -0.18),
  ('TCATATAGGTAAAGGTCAAAGTCGAACGATATGA', 3.75),
  ('ACAGACAGGTGATAAAGGTAACTCAGGCTATCAT', -0.124),
  ('TACCCTAGGTCAGATCGGGCCAGTATACGCTATA', 0.123);

Provide RARa homodimer (NR concentration 270 nM) PBM binding z-score reading for "TAGCCTAGGTCAGATCGGGCCAGTATACGCTATA" .
-0.937

Provide RARa homodimer (NR concentration 270 nM) PBM binding z-score reading for "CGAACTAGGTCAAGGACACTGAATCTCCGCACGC" .
0.291
